Reference source: the kinase profiling compilation of Christmann-Franck et al. (2016)

- tgt: PRKCD (human) (UniProt Q05655)
- Sequence (Q05655 whole entry, looked up): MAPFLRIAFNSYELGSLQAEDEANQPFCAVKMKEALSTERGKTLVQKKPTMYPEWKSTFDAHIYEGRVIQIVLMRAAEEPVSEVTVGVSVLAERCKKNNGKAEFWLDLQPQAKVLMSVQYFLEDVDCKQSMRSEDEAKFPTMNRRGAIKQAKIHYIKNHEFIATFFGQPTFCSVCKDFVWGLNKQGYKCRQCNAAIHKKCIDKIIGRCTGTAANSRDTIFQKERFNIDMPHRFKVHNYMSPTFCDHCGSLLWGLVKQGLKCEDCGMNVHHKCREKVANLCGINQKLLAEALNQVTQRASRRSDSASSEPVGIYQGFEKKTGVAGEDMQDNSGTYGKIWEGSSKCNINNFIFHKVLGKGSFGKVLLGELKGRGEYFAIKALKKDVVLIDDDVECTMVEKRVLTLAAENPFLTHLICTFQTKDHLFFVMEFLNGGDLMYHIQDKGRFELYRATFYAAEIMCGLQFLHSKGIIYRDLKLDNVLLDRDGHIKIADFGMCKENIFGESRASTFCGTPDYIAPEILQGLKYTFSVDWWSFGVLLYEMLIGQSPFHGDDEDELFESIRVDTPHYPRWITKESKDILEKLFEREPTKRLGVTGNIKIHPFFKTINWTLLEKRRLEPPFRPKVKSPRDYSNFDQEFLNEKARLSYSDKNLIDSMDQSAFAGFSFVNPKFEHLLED
- assay.explanation: KINOMEscan competition binding
- test.parameters: compound 10.0 µM
recorded.metric: kinase still bound, per cent of control (%)

[[record]]
record_smiles = "COc1cc(N2CCN(C)CC2)ccc1Nc1ncc2c(n1)Nc1ccccc1NC2=O"
result_number = 100

[[record]]
record_smiles = "COc1cc(C(=O)NC2CCN(C)CC2)ccc1Nc1ncc2c(n1)N(C1CCCC1)CCC(=O)N2C(C)C"
result_number = 0

[[record]]
record_smiles = "O=C1NC(=O)/C(=C/c2c[nH]c(=O)c(-c3ccc(N4CCNCC4)nc3)c2)S1"
result_number = 32

[[record]]
record_smiles = "CN1C(=O)c2ccccc2N(C)c2nc(NS(=O)(=O)c3ccc(N)cc3)ncc21"
result_number = 100

[[record]]
record_smiles = "CN1C(=O)c2ccccc2N(C)c2nc(Nc3ccc(N4CCC(O)CC4)cc3)ncc21"
result_number = 100

[[record]]
record_smiles = "COc1cc(N2CCN(C)CC2)ccc1Nc1ncc2c(n1)N(C)c1sccc1C(=O)N2C"
result_number = 100

[[record]]
record_smiles = "COc1cc(N2CCC(O)CC2)ccc1Nc1ncc2c(n1)N1CCc3cccc(c31)C(=O)N2C"
result_number = 100

[[record]]
record_smiles = "CN1CCN(c2ccc(C(=O)Nc3ncc4c(n3)N(C)c3ccccc3C(=O)N4C)cc2)CC1"
result_number = 100

[[record]]
record_smiles = "CS(=O)(=O)Nc1ccc(-c2cc(/C=C3\\SC(=N)NC3=O)c[nH]c2=O)cc1"
result_number = 34

[[record]]
record_smiles = "COc1cc(N2CCN(C)CC2)ccc1Nc1ncc2c(n1)N(C)c1ccccc1N(C)C2=O"
result_number = 100


---

- tgt: SRPK1 (human) (UniProt Q96SB4)
- Sequence (Q96SB4 whole entry, looked up): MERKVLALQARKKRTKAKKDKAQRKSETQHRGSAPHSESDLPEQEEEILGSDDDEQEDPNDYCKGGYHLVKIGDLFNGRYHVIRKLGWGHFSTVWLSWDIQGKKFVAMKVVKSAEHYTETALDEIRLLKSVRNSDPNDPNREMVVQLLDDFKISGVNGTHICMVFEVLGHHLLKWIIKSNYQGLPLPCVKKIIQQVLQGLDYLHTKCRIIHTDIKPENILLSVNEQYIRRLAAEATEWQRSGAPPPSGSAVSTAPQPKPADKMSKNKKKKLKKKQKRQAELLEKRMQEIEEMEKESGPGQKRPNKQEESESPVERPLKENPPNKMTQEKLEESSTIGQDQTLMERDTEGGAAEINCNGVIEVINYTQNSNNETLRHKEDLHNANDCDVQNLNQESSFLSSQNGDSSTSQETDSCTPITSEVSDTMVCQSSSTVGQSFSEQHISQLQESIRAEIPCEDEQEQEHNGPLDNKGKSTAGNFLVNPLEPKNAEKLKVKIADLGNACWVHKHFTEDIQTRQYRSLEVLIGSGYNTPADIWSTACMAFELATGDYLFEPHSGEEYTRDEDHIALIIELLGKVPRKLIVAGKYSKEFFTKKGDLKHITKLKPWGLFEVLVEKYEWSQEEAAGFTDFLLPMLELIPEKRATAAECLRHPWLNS
- assay.explanation: KINOMEscan competition binding
- test.parameters: compound 10.0 µM
Known kinase still bound, per cent of control of a selection of molecules
recorded.metric: kinase still bound, per cent of control (%)

[[record]]
record_smiles = "O=C1NC(=S)S/C1=C\\c1ccc(-c2cccc3ccccc23)o1"
unit_info = "%"
result_number = 32

[[record]]
record_smiles = "CN1CCN(c2ccc(C(=O)Nc3ncc4c(n3)N(C)c3ccccc3C(=O)N4C)cc2)CC1"
unit_info = "%"
result_number = 100

[[record]]
record_smiles = "COc1cc(C(=O)NC2CCN(C)CC2)ccc1Nc1ncc2c(n1)N(C1CCCC1)CCC(=O)N2C(C)C"
unit_info = "%"
result_number = 0

[[record]]
record_smiles = "CS(=O)(=O)Nc1ccc(-c2cncc(/C=C3\\SC(=N)NC3=O)c2)cc1"
unit_info = "%"
result_number = 11

[[record]]
record_smiles = "O=C1NC(=O)/C(=C/c2c[nH]c(=O)c(-c3ccc(N4CCNCC4)nc3)c2)S1"
unit_info = "%"
result_number = 25


---

Entries annotated with measured kinase still bound, per cent of control
- tgt: NLK (human) (UniProt Q9UBE8)
- Sequence (Q9UBE8 whole entry, looked up): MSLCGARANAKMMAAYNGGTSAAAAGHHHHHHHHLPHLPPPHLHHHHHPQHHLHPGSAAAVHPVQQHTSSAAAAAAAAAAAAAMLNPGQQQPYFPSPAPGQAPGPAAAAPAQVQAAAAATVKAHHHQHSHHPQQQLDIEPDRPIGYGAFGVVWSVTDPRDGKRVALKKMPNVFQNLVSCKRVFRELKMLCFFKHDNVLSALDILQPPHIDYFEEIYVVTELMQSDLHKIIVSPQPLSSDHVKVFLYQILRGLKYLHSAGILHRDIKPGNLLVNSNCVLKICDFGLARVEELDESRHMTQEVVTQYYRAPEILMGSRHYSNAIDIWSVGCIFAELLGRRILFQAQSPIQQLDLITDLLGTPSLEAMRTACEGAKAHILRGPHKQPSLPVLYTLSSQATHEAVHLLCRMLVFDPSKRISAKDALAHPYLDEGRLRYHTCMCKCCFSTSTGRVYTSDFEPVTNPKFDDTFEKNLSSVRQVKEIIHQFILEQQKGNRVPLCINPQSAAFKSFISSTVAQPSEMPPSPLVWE
- assay.explanation: KINOMEscan competition binding
- test.parameters: compound 10.0 µM
recorded.metric: kinase still bound, per cent of control (%)

[[record]]
record_smiles = "CS(=O)(=O)Nc1ccc(-c2cncc(/C=C3\\SC(=N)NC3=O)c2)cc1"
unit_info = "%"
result_number = 24

[[record]]
record_smiles = "CN1C(=O)c2ccccc2N(C)c2nc(Nc3ccc(N4CCC(O)CC4)cc3)ncc21"
unit_info = "%"
result_number = 74

[[record]]
record_smiles = "N=C1NC(=O)/C(=C/c2ccc(-c3ccc(S(N)(=O)=O)cc3)o2)S1"
unit_info = "%"
result_number = 18

[[record]]
record_smiles = "COc1cc(C(N)=O)ccc1Nc1ncc2c(n1)N(C1CCCC1)[C@@H]1CCC[C@@H]1C(=O)N2C"
unit_info = "%"
result_number = 25

[[record]]
record_smiles = "COc1cc(N2CCN(C)CC2)ccc1Nc1ncc2c(n1)Nc1ccccc1NC2=O"
unit_info = "%"
result_number = 100

